Below is a list of entries, each paired with its recorded selectivity ratio at 48 h value.
Assay comment: Selectivity index, ratio for cytotoxicity against african green monkey Vero E6 cells after 48 hrs to antiviral activity against SARS-CoV-2 2019-nCoV Muc-IMB-1 infected in Vero E6 cells pre-infected with virus for 1 hr followed by compound addition and measured after 48 hrs post infection
Format: toxicity, cell-based, Vero C1008
Measurement parameters: read-out: Selectivity Index

| Compound | selectivity ratio at 48 h |
| --- | --- |
| COC(=O)[C@H]1[C@@H](O)[C@@]2(O)c3c(OC)cc(Br)cc3O[C@@]2(c2ccc(OC)cc2)[C@@H]1c1ccccc1 (racemic) | 20.9 |
| COC(=O)[C@H]1[C@@H](O)[C@@]2(O)c3c(Cl)cc(Cl)cc3O[C@@]2(c2ccc(OC)cc2)[C@@H]1c1ccccc1 (racemic) | 5.7 |
| CONC(=O)[C@H]1[C@@H](O)[C@@]2(O)c3c(Cl)cc(Br)cc3O[C@@]2(c2ccc(OC)cc2)[C@@H]1c1ccccc1 (racemic) | 0.9 |
